Examples of compounds with documented melting point follow.

Worked examples follow.
* COc1ccc2[nH]c3c(c2c1)C[C@H]1C(=O)N(C)C(=O)N1[C@@H]3c1cccc(O)c1 (racemic) | 172 to 175 °C
* Cc1cccc2[nH]c3c(c12)C[C@H]1C(=O)N(C)C(=O)N1[C@@H]3c1cccc(O)c1 (racemic) | 348 to 352 °C
* Cc1ccc2c3c([nH]c2c1)[C@@H](c1cccc(O)c1)N1C(=O)N(C)C(=O)[C@@H]1C3 (racemic) | 282 to 285 °C

Turning to the following compound.
Using the record for CN1C(=O)[C@@H]2Cc3c([nH]c4cc(F)ccc34)[C@@H](c3cccc(O)c3)N2C1=O (racemic) , report its melting point.
279 to 283 °C
